Measured self-aminoacylation accompanies every entry in the list below.
tested on: biotinyl-Trp-oxazolone; assay: self-aminoacylation, catalytic enhancement (BWO) (fold over background); higher = more active; k-Seq, kA / k0A0; sequences stand for … in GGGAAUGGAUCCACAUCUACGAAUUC…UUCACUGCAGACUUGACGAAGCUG
Variants at the floor of the assay were thinned out.
I'd appreciate a reply containing only the number, no unit.

Answered examples (3):
biopolymer-sequence	self-aminoacylation
AGGUUAGCUAAUAGUCGCAAG [Fam3.1 aminoacylation ribozyme variant]	3.06
CUUACCCUGGUCAUCGAGUAA [Fam2.1 aminoacylation ribozyme variant]	3.51
AUCCACGUAGGUCAUCGGGUG [Fam2.2 aminoacylation ribozyme variant]	4.86

Short answer for CUACUUAAAACAAUCCGUCUG [Fam1A.1 aminoacylation ribozyme variant] : self-aminoacylation was 0.547

Short answer for AAUUUUGCAAAUAGUCGCAAG [Fam3.1 aminoacylation ribozyme variant] : self-aminoacylation was 2.48

Short answer for AUUCACCUACGUCAUCGAGUG [Fam2.2 aminoacylation ribozyme variant] : self-aminoacylation was 3.77

Short answer for AUUCUCCUUGGUCAUCGGGUG [Fam2.2 aminoacylation ribozyme variant] : self-aminoacylation was 9.53

Short answer for CCACACUUCAUCCAAUCGGUC [Fam1B.1 aminoacylation ribozyme variant] : self-aminoacylation was 0.581

Short answer for AUUACCAUGGUCAUAGAGUGA [Fam2.1 aminoacylation ribozyme variant] : self-aminoacylation was 10

Short answer for AUUUACCUAGGACAUCGGGUG [Fam2.2 aminoacylation ribozyme variant] : self-aminoacylation was 2.29

Short answer for AUGUUUGCUAGUAGUCGCAAG [Fam3.1 aminoacylation ribozyme variant] : self-aminoacylation was 0.975

Short answer for UUUCACCUAGAUCAUCGGGUG [Fam2.2 aminoacylation ribozyme variant] : self-aminoacylation was 3.04

Short answer for AUUACCCUGGUCAUCGAGUUC [Fam2.1 aminoacylation ribozyme variant] : self-aminoacylation was 1.54

Short answer for AUUCACCUAAGUCUUCGGGUG [Fam2.2 aminoacylation ribozyme variant] : self-aminoacylation was 5.42

----------
tested on: biotinyl-Val-oxazolone; test: self-aminoacylation, catalytic enhancement (BVO) (fold over background); higher = more active; k-Seq, kA / k0A0; sequences stand for … in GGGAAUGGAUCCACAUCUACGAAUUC…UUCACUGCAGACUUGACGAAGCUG
Variants at the floor of the assay were thinned out.
Measured self-aminoacylation accompanies every entry in the list below.
I'd appreciate a reply containing only the number, no unit.

biopolymer-sequence	target-desc	self-aminoacylation
CUACUUCAAAAAUUCGGUCUG [Fam1A.1 aminoacylation ribozyme variant]	biotinyl-Val-oxazolone	1.45

Short answer for CUACUUCAAACAAUCGAGCUG [Fam1A.1 aminoacylation ribozyme variant] : self-aminoacylation was 0.706

----------
tested on: biotinyl-Leu-oxazolone; experiment: self-aminoacylation, catalytic enhancement (BLO) (fold over background); higher = more active; k-Seq, kA / k0A0; sequences stand for … in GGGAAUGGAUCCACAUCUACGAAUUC…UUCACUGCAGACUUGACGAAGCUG
This sample holds only a part of the variants without activity.
experimental-readout: self-aminoacylation
I'd appreciate a reply containing only the number, no unit.

Answered examples (5):
biopolymer-sequence	self-aminoacylation
CCACGCGUCAAGCAAUCGGUC [Fam1B.1 aminoacylation ribozyme variant]	0.71
AAGAUUGCUAAUAGUCGCUAG [Fam3.1 aminoacylation ribozyme variant]	0.963
CAACUUCAUACAAUCGGUCUG [Fam1A.1 aminoacylation ribozyme variant]	1.04
CUACUUCAAACAAUCGUUCUU [Fam1A.1 aminoacylation ribozyme variant]	0.64
AAGUUUGCUAAGAGUCGUAAG [Fam3.1 aminoacylation ribozyme variant]	0.535

Short answer for AUUACUAUGGUCAUCGAGUGA [Fam2.1 aminoacylation ribozyme variant] : self-aminoacylation was 6.66

Short answer for AACUUUGCUAAUAGUCGCACG [Fam3.1 aminoacylation ribozyme variant] : self-aminoacylation was 2.15

Short answer for ACUAGCCUGGUCAUCGAGUGA [Fam2.1 aminoacylation ribozyme variant] : self-aminoacylation was 4.72

----------
tested on: biotinyl-Phe-oxazolone; test: self-aminoacylation, catalytic enhancement (BFO) (fold over background); higher = more active; k-Seq, kA / k0A0; sequences stand for … in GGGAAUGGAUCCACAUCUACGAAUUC…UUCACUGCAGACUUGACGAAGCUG
Fewer inactive variants are shown than the library holds.
Lab note: anything with self-aminoacylation at or over 3 counts as Yes; the rest go in No.

Textbook exercise: given the entry AAGUUUGCUAAUAGUCCAAAG [Fam3.1 aminoacylation ribozyme variant] , state whether its self-aminoacylation is greater than or equal to 3.
Yes

----------
tested on: biotinyl-Val-oxazolone; assay: self-aminoacylation, catalytic enhancement (BVO) (fold over background); higher = more active; k-Seq, kA / k0A0; sequences stand for … in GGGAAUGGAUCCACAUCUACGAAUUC…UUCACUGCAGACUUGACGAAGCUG
This sample holds only a part of the variants without activity.
experimental-readout: self-aminoacylation
I'd appreciate a reply containing only the number, no unit.

biopolymer-sequence	target-desc	self-aminoacylation
AUUACCCUGGCCCUCGAGUGA [Fam2.1 aminoacylation ribozyme variant]	biotinyl-Val-oxazolone	3.42
AUUCGCCUAGGUCAUCGGGUG [Fam2.2 aminoacylation ribozyme variant]	biotinyl-Val-oxazolone	23.1
CCACACCUCAAGCGAUCGGUC [Fam1B.1 aminoacylation ribozyme variant]	biotinyl-Val-oxazolone	1.73
CCACACUUCCAGCAAUCGUUC [Fam1B.1 aminoacylation ribozyme variant]	biotinyl-Val-oxazolone	1.05

Short answer for CAACAAUUCAAGCAAUCGGUC [Fam1B.1 aminoacylation ribozyme variant] : self-aminoacylation was 0.937

Short answer for CCACAAUUCACGCAAUCGGUC [Fam1B.1 aminoacylation ribozyme variant] : self-aminoacylation was 2.05

Short answer for AUUCUCCUAGGUCAUCGGGGG [Fam2.2 aminoacylation ribozyme variant] : self-aminoacylation was 3.29

Short answer for CCACACUUCAAGCCAUGGGUC [Fam1B.1 aminoacylation ribozyme variant] : self-aminoacylation was 0.952

Short answer for AUUAGCCUGGUCAACGAGUGA [Fam2.1 aminoacylation ribozyme variant] : self-aminoacylation was 3.45

Short answer for AUGCUUCAAACAAUCGGUCUG [Fam1A.1 aminoacylation ribozyme variant] : self-aminoacylation was 1.99

Short answer for AUGUCCCUGGUCAUCGAGUGA [Fam2.1 aminoacylation ribozyme variant] : self-aminoacylation was 17.2

Short answer for AGUCACCAAGGUCAUCGGGUG [Fam2.2 aminoacylation ribozyme variant] : self-aminoacylation was 4.7

Short answer for CCACACUUCAAGCUUUCGGUC [Fam1B.1 aminoacylation ribozyme variant] : self-aminoacylation was 1.64

Short answer for AUUCACCUUGGUCCUCGGGUG [Fam2.2 aminoacylation ribozyme variant] : self-aminoacylation was 3.67

----------
system: biotinyl-Leu-oxazolone; experiment: self-aminoacylation, catalytic enhancement (BLO) (fold over background); higher = more active; k-Seq, kA / k0A0; sequences stand for … in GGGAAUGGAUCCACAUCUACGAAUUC…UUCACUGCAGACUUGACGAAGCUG
Variants at the floor of the assay were thinned out.
Measured self-aminoacylation accompanies every entry in the list below.
I'd appreciate a reply containing only the number, no unit.

biopolymer-sequence	self-aminoacylation
CUACUUCAUACAAUCGAUCUG [Fam1A.1 aminoacylation ribozyme variant]	0.505
AUUACCCUAGUCAUCGAGUGU [Fam2.1 aminoacylation ribozyme variant]	2.55
CCACACUUGAACCAAUCGGUC [Fam1B.1 aminoacylation ribozyme variant]	0.635
AUUUACCGAGGUCAUCGGGUG [Fam2.2 aminoacylation ribozyme variant]	11.1
CCACACUUCACGGAAUCGGUC [Fam1B.1 aminoacylation ribozyme variant]	1.65

Short answer for AUUACCCCGGUCCUCGAGUGA [Fam2.1 aminoacylation ribozyme variant] : self-aminoacylation was 3.97

Short answer for AUACCUCAAACAAUCGGUCUG [Fam1A.1 aminoacylation ribozyme variant] : self-aminoacylation was 0.934

Short answer for AUUCACCCAGAUCAUCGGGUG [Fam2.2 aminoacylation ribozyme variant] : self-aminoacylation was 2.43

----------
tested on: biotinyl-Ile-oxazolone; experiment: self-aminoacylation, catalytic enhancement (BIO) (fold over background); higher = more active; k-Seq, kA / k0A0; sequences stand for … in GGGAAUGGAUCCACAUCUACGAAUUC…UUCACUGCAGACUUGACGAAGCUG
Fewer inactive variants are shown than the library holds.
experimental-readout: self-aminoacylation
I'd appreciate a reply containing only the number, no unit.

biopolymer-sequence	experimental-value
CCACCCUUCAAGCACUCGGUC [Fam1B.1 aminoacylation ribozyme variant]	1.54
AUUACGCUGGUCAUGGAGUGA [Fam2.1 aminoacylation ribozyme variant]	2.29
AAGUCUGCUAAUAGUCGCGAG [Fam3.1 aminoacylation ribozyme variant]	1.26
AUUACCCUGGUCAUCGGGUAA [Fam2.1 aminoacylation ribozyme variant]	11.4
AAGUUUGCCAAUGGUCGCAAG [Fam3.1 aminoacylation ribozyme variant]	0.987

Short answer for AUUACCCUGGUAAUCGAGUGU [Fam2.1 aminoacylation ribozyme variant] : self-aminoacylation was 2.17

Short answer for AUUAGCCUGGUCAUCGAGGGA [Fam2.1 aminoacylation ribozyme variant] : self-aminoacylation was 2.08
